system: B. thailandensis ATCC E264; test: microbe, parasite or virus in culture; type: cell-based
MIC Bt: recorded values

compound	MIC Bt
CNc1cc(F)cc2c1[nH]c1nc(Oc3cnc(C)nc3)nc(N3C[C@H]4CCN[C@H]4C3)c12	≤0.5 µg/mL
CNc1cc(F)cc2c1[nH]c1nc(Oc3cnc(C)nc3)nc(N3CC4CCCNC4C3)c12 (centres unmarked)	1 µg/mL
CNc1cc(F)cc2c1[nH]c1nc(Oc3cnc(C)nc3)nc(N3CC4CCC(N)C4C3)c12 (centres unmarked)	1 µg/mL
CNc1cc(F)cc2c1[nH]c1nc(Oc3cnc(C)nc3)nc(N3CC4(CCC4N)C3)c12 (centres unmarked)	≤0.5 µg/mL
CNc1cc(F)cc2c1[nH]c1nc(Oc3cnc(C)nc3)nc(N3CC4CC(N)C4C3)c12 (centres unmarked)	≤0.5 µg/mL
CNc1cc(F)cc2c1[nH]c1nc(Oc3cnc(C)nc3)nc(N3CCC4(CCC4N)C3)c12 (centres unmarked)	≤0.5 µg/mL
CNc1cc(F)cc2c1[nH]c1nc(Oc3cnc(C)nc3)nc(N3CC4CC3C[C@@H]4N)c12 (some centres unmarked)	≤0.5 µg/mL
CNc1cc(F)cc2c1[nH]c1nc(Oc3cnc(C)nc3)nc(N3CC(N)C4(CC4)C3)c12 (centres unmarked)	≤0.5 µg/mL
CNc1cc(F)cc2c1[nH]c1nc(Oc3cnc(C)nc3)nc(N3CC4C(N)C4C3)c12 (centres unmarked)	≤0.5 µg/mL
CNc1cc(F)cc2c1[nH]c1nc(Oc3cnc4cccnc4c3)nc(N3CC4(CCC4N)C3)c12 (centres unmarked)	1 µg/mL
CNc1cc(F)cc2c1[nH]c1nc(Oc3ccc4cncnc4c3)nc(N3CC4CC(N)C4C3)c12 (centres unmarked)	≤0.5 µg/mL

* * *

# key: entry, value: MIC
test system: A. baumannii ATCC 19606; assay: MIC, A. baumannii ATCC 19606; assay type: cell-based; conditions: Acinetobacter baumannii, ATCC19606; Ab = A. baumannii; strain not given

compound	MIC
CNc1cc(F)cc2c1[nH]c1nc(Oc3cnc(C(C)O)nc3)nc(N3CC4(CC[C@H]4N)C3)c12 (stereo partly shown)	2 µg/mL
CNc1cc(F)cc2c1[nH]c1nc(Oc3cnc(C)nc3)nc(N3CC4NCCC4(C)C3)c12 (stereo not shown)	≤ 0.5 µg/mL
CNc1cc(F)c(C)c2c1[nH]c1nc(Oc3cnc(C)nc3)nc(N3C[C@H](N)C4(CC4)C3)c12	≤ 0.5 µg/mL
CNc1cc(F)cc2c1[nH]c1nc(Oc3cnc(C)nc3)nc(N3CCC4(CC4N)C3)c12 (stereo not shown)	≤ 0.5 µg/mL
CNc1cc(F)cc2c1[nH]c1nc(Oc3cnc(C(C)O)nc3)nc(N3CC4C[C@@H](N)C4C3)c12 (stereo partly shown)	1 µg/mL
CNc1cc(F)cc2c1[nH]c1nc(Oc3cnc(C)nc3)nc(N3C[C@@H]4[C@H](N)C[C@]4(C)C3)c12	≤ 0.5 µg/mL
CNc1cc(F)cc2c1[nH]c1nc(Oc3cnc4cccnc4c3)nc(N3CC4C(N)C4C3)c12 (stereo not shown)	≤ 0.5 µg/mL
CNc1cc(F)c(C)c2c1[nH]c1nc(Oc3cnc(C)nc3)nc(N3CC4C[C@@H]3C[C@H]4N)c12	≤ 0.5 µg/mL
CNc1cc(F)cc2c1[nH]c1nc(Oc3cnc(C)nc3)nc(N3C[C@@H]4[C@H](C3)[C@@]4(N)C(N)=O)c12	> 16 µg/mL
CNc1cc(F)cc2c1[nH]c1nc(Oc3ccc(C#N)nc3)nc(N3C[C@H]4C[C@@H]3C[C@H]4N)c12	≤ 0.5 µg/mL
